Each record here notes measured pIC50.
- Target Or System: human SCD1 (Homo sapiens (Human), UniProt O00767)
- Sequence (O00767 whole entry): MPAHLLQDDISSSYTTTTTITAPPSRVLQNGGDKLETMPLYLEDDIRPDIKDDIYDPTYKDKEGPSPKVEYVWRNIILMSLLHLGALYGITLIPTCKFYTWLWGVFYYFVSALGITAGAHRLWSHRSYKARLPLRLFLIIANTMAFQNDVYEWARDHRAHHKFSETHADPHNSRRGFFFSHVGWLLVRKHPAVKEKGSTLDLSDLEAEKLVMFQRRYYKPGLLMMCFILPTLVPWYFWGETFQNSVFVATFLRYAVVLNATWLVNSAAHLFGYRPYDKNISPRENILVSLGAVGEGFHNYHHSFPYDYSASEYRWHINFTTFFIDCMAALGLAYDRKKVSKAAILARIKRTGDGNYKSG
- Protocol Summary: Yeast growth assay, strain expressing human SCD1 as the sole desaturase (reduced growth as surrogate for SCD inhibition)
- Condition Label: yeast with OLE1 deleted expressing human SCD1 from a plasmid; growth read as OD600 after 40 h at 30° C.; top drug concentration 33.3 μM
pIC50: −log10 of the molar value.

Answered cases to consult:
O=C(Nc1cnn(Cc2ccccc2)c1)c1cc(-c2ccccn2)no1 :: < 4.35
CC(c1ccccc1)n1cc(NC(=O)c2cc(-c3ccccc3)on2)cn1 (stereo not drawn) :: < 4.35
O=C(Nc1cnn(Cc2ccccc2)c1)c1cc(-c2ccco2)on1 :: 7.05
O=C(c1cc(-c2ccc3c(c2)OCO3)on1)N1CCCC1c1ccccc1F (stereo not drawn) :: < 4.35
Cn1cc(-c2cc(C(=O)N3CCC[C@H]3c3ccccc3)no2)ccc1=O :: 4.44

stdin: Short answer please: pIC50, human SCD1 (Homo sapiens (Human), UniProt O00767), entry O=C(c1noc2c1CCCC2)N1CC(Cc2ccccc2)C1
stdout: < 4.35

stdin: Same question for O=C(Nc1cnn(Cc2ccccc2)c1)c1cc(-c2ccccc2F)on1 please.
stdout: < 4.35

stdin: Same question for O=C(c1cc(-c2ccccc2)on1)N1CCN(c2cccc(F)c2)CC1 please.
stdout: 6.68

stdin: Same question for O=C(c1cc(-c2cnccn2)on1)N1CC(c2ccccc2)C1 please.
stdout: < 4.35
